Method Summary: Aqueous solubility in pH 7.4 phosphate buffer
Format: physicochemical
Test Context: thermodynamic from solid, equilibration 24 h at 25° C., read-out: Aq. solubility
// values below are reported solubility at 24 h
Please respond with the number in µM and leave the unit unwritten.

Solved cases below.
>  <Molecule>
Cc1cc(-c2noc(CN3C[C@@H]4C[C@H]3CN4)n2)cc2c1C(=O)N([C@@H](C)c1ccc(Cl)cc1)C2 [Example 7]

>  <Measure Unit>
µM

>  <solubility at 24 h>
158

$$$$
>  <Molecule>
Cc1cc(-c2noc(CN3CCNC[C@@H]3C)n2)cc2c1C(=O)N(Cc1ccc(Cl)cc1)C2 [Example 9]

>  <Measure Unit>
µM

>  <solubility at 24 h>
158

$$$$
>  <Molecule>
Cc1cc(-c2noc(CN3C[C@@H]4C[C@H]3CN4)n2)cc2c1C(=O)N(Cc1ccc(OC(F)(F)F)cc1)C2 [Example 5]

>  <Measure Unit>
µM

>  <solubility at 24 h>
141

$$$$

Alright, here's another molecule for you.
Query: Return value of solubility at 24 h for input CC1(C)CN(Cc2nc(-c3cc(Cl)c4c(c3)CN(Cc3ccc(OC(F)(F)F)cc3)C4=O)no2)CCN1 [Example 11] , no commentary.
Result: 230
